These data points were gathered from PubChem BioAssay (EPA / NIEHS).

testedOn: Bile acid receptor (Homo sapiens)
testDetails: OT_FXR_FXRSRC1_1440: Odyssey Thera (OT) 24-hour HEK293T Protein-Complementation Assay for Farnesoid X receptor/SRC-1 Co-activator (AID 2283384)
Inconclusive results are not listed. Activity calls are given as the source filed them. The calls were made as follows: active = hit-call score of the fitted dose curve at least 0.9, where 1 is the maximum; inconclusive = response in the unintended direction; inactive = score below 0.9.
I would appreciate it if you answered using one of these outcomes: label 1 (active), label 0 (inactive)

Qu. For "Nc1ccc(S(=O)(=O)c2ccc(N)cc2)cc1" , which call appears in the assay record?
Ans. label 0

Qu. Record lookup: outcome of this test for "NC(=O)Cn1c(=O)cc(CCN2CCN(c3nccc4sccc34)CC2)c2ccc(F)cc21" ?
Ans. label 0

Qu. GET /call?item= "CCCCCCCCCCO" returns the recorded outcome of this test.
Ans. label 0

Qu. Hi team, can someone confirm the assay call for "O=c1[nH]cc(F)c(=O)[nH]1" ?
Ans. label 1

Qu. Tell me the recorded outcome of this test for "COc1cc(S(=O)(=O)O)c(C)cc1N=Nc1c(O)ccc2cc(S(=O)(=O)O)ccc12" .
Ans. label 0

Qu. Dear colleague, could you share the recorded outcome for "Oc1ccc2ccccc2c1N=Nc1ccccc1" when you have a moment?
Ans. label 1

Qu. Can you look up the reported call for "O=C(O)Cc1ccccc1Nc1c(Cl)cccc1Cl" for me?
Ans. label 0

====

Read-out: Cyclin D1 (CCND1), CCND1 (gene 595)
testDetails: LTEA_HepaRG_CCND1: Life Technologies and Expression Analysis (LTEA) Assay for Cyclin D1 (CCND1) using HepaRG (AID 2283451)
conditionsUsed: mRNA level, 48 h; actives raise or lower the signal
Protocol: LTEA_HepaRG is a cell based, multiplexed-readout assay that uses HepaRG, a human liver cell line, with measurements taken at 48 hours after chemical dosing on a 96-well plate.LTEA_HepaRG_CCND1 is one of 102 assay component(s) measured in the LTEA HepaRG cell culture assay. It is a marker of Cell proliferation, survival, death.Data from the assay component LTEA_HepaRG_CCND1 was analyzed into 1 endpoint. […]
Calls of active or inactive are those of the source. Rule for the calls: active = hit-call score of the fitted dose curve at least 0.9, where 1 is the maximum; inactive = score below 0.9.
Pick one: True = active, False = inactive

Qu. Write down the call the test reported for this compound. Item: "C1CCC(SSC2CCCCC2)CC1"
Ans. False

Qu. Please share the test call associated with "Cc1c(C(=O)O)c(O)cc2c1C(=O)c1c(O)c([C@@H]3O[C@H](CO)[C@@H](O)[C@H](O)[C@H]3O)c(O)c(O)c1C2=O" .
Ans. False

Qu. Status in this test for "CCCCCCCCCCC" ?
Ans. False

Qu. // outcome(item) with item = "NCCO"
Ans. False

Qu. I would be grateful if you could indicate the recorded call for CC1(C)CC(N=C=O)CC(C)(CN=C=O)C1 (centres undefined) .
Ans. False

Qu. Look up the recorded call for "COc1ccc(S(=O)(=O)N2C(=O)[C@@](c3ccccc3OC)(N3C[C@H](O)C[C@H]3C(=O)N(C)C)c3cc(Cl)ccc32)c(OC)c1" in this test.
Ans. True

Qu. In this assay, the call recorded for "O=C(O)Cc1ccccc1Nc1c(Cl)cccc1Cl" was what?
Ans. False

Qu. Assay result, entry "CC(=O)OC/C=C(\C)CCC=C(C)C" — outcome?
Ans. False

Qu. # lookup: test call for "CCCCN(CCCC)CCCC"
Ans. False

Qu. Please state the recorded outcome for this compound: "COc1cc(C=O)ccc1O"
Ans. False

Qu. Please indicate how the test categorized "CNCc1cc(F)ccc1Oc1ccc(Cl)c(Cl)c1" .
Ans. False

Qu. Given "NC(=O)Cn1c(=O)cc(CCN2CCN(c3nccc4sccc34)CC2)c2ccc(F)cc21" , state the outcome it received in this test.
Ans. False

Qu. Please let me know the test result on file for "Cc1ccc(C)c(C)c1" .
Ans. False

Qu. GET /call?item= "Cc1cc(NC(=O)C(=O)O)cc(C)c1Oc1ccc(O)c2c1CCC2" returns the recorded outcome of this test.
Ans. False

Qu. GET /call?item= "CN[C@H]1CC[C@@H](c2ccc(Cl)c(Cl)c2)c2ccc(S(N)(=O)=O)cc21" returns the recorded outcome of this test.
Ans. False

Qu. Lab log entry: "CN1CCCC1=O" — outcome as called in the assay?
Ans. False

Qu. Short answer needed: outcome of this test for "Cc1ccc(C(C)C)c(O)c1" ?
Ans. False

Qu. Which outcome did this test record for the compound "CC1=C(/C=C/C(C)=C/C=C/C(C)=C/CO)C(C)(C)CCC1" ?
Ans. False

Qu. Just curious, what result did "Oc1ccc2c(c1)OC[C@@H](N1CCC(O)(c3ccc(F)cc3)CC1)[C@H]2O" get here?
Ans. False

Qu. Given "Cc1nc(C)nc(N2C[C@@H](C)N(c3ccnc([C@@H](C)O)n3)[C@@H](C)C2)n1" , state the outcome it received in this test.
Ans. False

Qu. For "CC(C)c1ccc(C(=O)N=C(N)N)cc1S(C)(=O)=O" , which call appears in the assay record?
Ans. True

Qu. Hi, sorry to bother you, what did the test record for "CCCCCCC(=O)OCC" ?
Ans. False

Qu. So what was the verdict on "NCC1(Cc2noc(=O)[nH]2)CCCCC1" in this test?
Ans. False

Qu. GET /call?item= "CN1CCN(Cc2cc(-c3ccc4[nH]c(=O)oc4c3)co2)[C@@H](c2ccc(F)cc2)C1" returns the recorded outcome of this test.
Ans. True

Qu. Fill in: this test's call for CC(CO)OC(C)CO (centres undefined) (tested in a mixture with another compound) is ___
Ans. False

Qu. // return assay outcome for "CC(=O)OCCOCCOCCOC(C)=O"
Ans. False

Qu. For "O=c1c(O)c(-c2ccc(O)c(O)c2)oc2cc(O)cc(O)c12" , which call appears in the assay record?
Ans. False

Qu. Any idea what this test logged for "CCc1c(C(=O)NN2CCCCC2)nn(-c2ccc(Cl)cc2Cl)c1-c1ccc(Br)cc1" ?
Ans. False

Qu. How did this test come out for "Cc1ccc(Cl)cc1" ?
Ans. False

Qu. Any idea what this test logged for "Cc1ccccc1Cl" ?
Ans. False

Qu. // param item: "CCCCCCCCCCCCCO" ; yields the recorded call
Ans. False

Qu. What call does the record list for "CC(=O)Oc1ccccc1C(=O)O" ?
Ans. False

Qu. Hey, what did the test say about "c1cc(-c2ccncc2)ccn1" ?
Ans. False

Qu. What did the test return for "Cc1cccc([N+](=O)[O-])c1C" ?
Ans. False

Qu. Look up the recorded call for "CNC(=O)[C@H]1O[C@@H](n2cnc3c(NCc4cc(Cl)ccc4OCc4cc(C)no4)ncnc32)[C@H](O)[C@@H]1N" in this test.
Ans. False

Qu. Name the outcome recorded for "C=CCOC(=O)c1ccccc1C(=O)OCC=C" in the assay.
Ans. False

Qu. # fetch the recorded call for "COc1cc(-c2nc(NC(=O)c3cc4cc(C)cc(C)c4n3CC(=O)O)sc2CCC2CCCCC2)c(OC)cc1Cl" here
Ans. True

Qu. Returns: the outcome recorded for "CCOC(=O)C(C)(C)Oc1ccc(Cl)cc1" in this assay.
Ans. False

Qu. Returns: the outcome recorded for "Cc1ccc2ncccc2c1" in this assay.
Ans. False

Qu. Status in this test for "C[C@]12C=CC(=O)C=C1CC[C@@H]1[C@@H]2C(=O)C[C@@]2(C)[C@H]1CC[C@]2(O)C(=O)CO" ?
Ans. True

Qu. Status in this test for "CCCCCCCCCCCCCCCC" ?
Ans. False

Qu. Outcome? "COc1cc(S(=O)(=O)O)c(C)cc1N=Nc1c(O)ccc2cc(S(=O)(=O)O)ccc12"
Ans. False

Qu. I'd appreciate the recorded outcome for "O=C(O)CCCCC(=O)O" from this test.
Ans. False

Qu. Per the assay record, what outcome was assigned to "CCCc1cc(=O)[nH]c(=S)[nH]1" ?
Ans. False

Qu. Dear all, I need the recorded test outcome for "CCNc1cccc(C)c1" , thank you.
Ans. False

Qu. Hi, do you know how "Nc1ccc2c(c1)C(=O)c1ccccc1C2=O" came out in this test?
Ans. True

Qu. Given "C[Si]1(C)O[Si](C)(C)O[Si](C)(C)O[Si](C)(C)O1" , state the outcome it received in this test.
Ans. False

Qu. Status in this test for "CCCCCC(=O)O" ?
Ans. False

Qu. # outcome recorded in this test, key = CCCCC(CC)COC(=O)CC(C(=O)OCC(CC)CCCC)S(=O)(=O)O (centres undefined)
Ans. True

====

Read-out: TIMP metallopeptidase inhibitor 2 (TIMP2), TIMP2 (gene 7077)
testDetails: BSK_KF3CT_TIMP2: BioMAP Diversity Plus: KF3CT Assay for TIMP metallopeptidase inhibitor 2 (TIMP2) Biomarker Activity (AID 2283071)
conditionsUsed: primary human keratinocytes with fibroblasts; actives raise or lower the signal
The source made the active and inactive calls. How the source made its calls: active means hit-call score of the fitted dose curve at least 0.9, where 1 is the maximum; inactive means score below 0.9.
Classes to choose from: active, inactive

Qu. Tell me the recorded outcome of this test for "C1CCC(SSC2CCCCC2)CC1" .
Ans. active

Qu. Which result was noted for this compound in the test: "C=CCOC(=O)c1ccccc1C(=O)OCC=C"
Ans. inactive

Qu. Test call, this compound: "CCCCCCCCCCCCCCCC"
Ans. inactive

Qu. Outcome? CC(CO)OC(C)CO (stereo not drawn) (tested in a mixture with another compound)
Ans. inactive

Qu. Hey, what did the test say about "Cc1ccc(C)c(O)c1C" ?
Ans. inactive

Qu. For "CCc1c(C(=O)NN2CCCCC2)nn(-c2ccc(Cl)cc2Cl)c1-c1ccc(Br)cc1" , which call appears in the assay record?
Ans. active

Qu. Name the outcome recorded for "NS(=O)(=O)c1cc2c(cc1Cl)NCNS2(=O)=O" in the assay.
Ans. inactive

Qu. Could you kindly confirm the outcome this assay logged for "CCCCCCCCCCO" ?
Ans. inactive

Qu. Look up the recorded call for "CCCCCCCCCCCC(=O)OC" in this test.
Ans. inactive

Qu. What is the recorded call for this compound in the test? "CCCCOC(=O)CCCCCCCCC(=O)OCCCC"
Ans. inactive

Qu. How was "COc1ccc2c(c1)c(CC(=O)O)c(C)n2C(=O)c1ccc(Cl)cc1" classified in this test?
Ans. inactive

Qu. Entry "CCOc1ccc2c(c1)C(C)=CC(C)(C)N2" : call = ?
Ans. inactive

Qu. Which outcome did this test record for the compound "O=C(O)Cc1ccccc1Nc1c(Cl)cccc1Cl" ?
Ans. inactive

Qu. Each compound tested received a call. Report the one for "Cc1c(C(=O)O)c(O)cc2c1C(=O)c1c(O)c([C@@H]3O[C@H](CO)[C@@H](O)[C@H](O)[C@H]3O)c(O)c(O)c1C2=O" .
Ans. inactive

Qu. Call for entry "Cc1ccc(Cl)cc1" :
Ans. inactive

Qu. Could you check what this test reported for "COCCOCCOC" ?
Ans. inactive

Qu. Tell me the recorded outcome of this test for "Cc1ccc2ncccc2c1" .
Ans. inactive

Qu. Returns: the outcome recorded for "CC(C)(C)c1cc(O)c(C(C)(C)C)cc1O" in this assay.
Ans. inactive

Qu. # fetch the recorded call for "CCCc1cc(=O)[nH]c(=S)[nH]1" here
Ans. inactive

Qu. How did this test come out for CC(=O)C(C)=CC1C(C)=CCCC1(C)C (stereo not drawn) ?
Ans. inactive

Qu. Record request — test call for Cc1nc(-c2ccc3c(c2)CCN(CCC2CCC(NC(=O)/C=C/c4ccc(F)cc4)CC2)CC3)no1 (stereo not drawn)
Ans. inactive

Qu. Kindly provide the recorded test outcome for the following compound: "O=C(O)CCCCC(=O)O"
Ans. inactive

Qu. Recorded test call requested for "CC(=O)OCCOCCOCCOC(C)=O"
Ans. inactive

Qu. Please let me know the test result on file for "Cc1ccc(C)c(C)c1" .
Ans. inactive

Qu. Field: outcome | Entry: "Cc1cccc(Nc2cc(Cl)nc(SCC(=O)O)n2)c1C"
Ans. inactive

Qu. // param item: "Cc1cccc([N+](=O)[O-])c1C" ; yields the recorded call
Ans. inactive

Qu. For this compound, state the assay outcome: "O=c1[nH]cc(F)c(=O)[nH]1"
Ans. inactive

Qu. Any idea what this test logged for "Cc1oc(-c2ccccc2)nc1CCOc1cccc2c1ccn2CCC(=O)O" ?
Ans. inactive
